Listing: IC50 of selected compounds
# STUDY_TARGET: BoNT/A LC (Clostridium botulinum)
# ASSAY_EXPLANATION: biochemical
Answer format: numeric, nM implied, no suffix.

COMPOUND	MEASURED_ENDPOINT	SCALE_UNIT	NUMERIC_RESULT
O=C(O)C1CNCCN(Cc2cc(=O)n3cccc(O)c3n2)C1 (centres unmarked) [Compound 1]	IC50	nM	7400

Query: For the compound COC(=O)c1cccc(CNCc2cc(=O)n3cccc(O)c3n2)c1 [Compound 24] , what IC50 is on record?
Reply: 410

Query: For Cc1ccc(COCc2cc(=O)n3cccc(O)c3n2)cc1 [Compound 39] then?
Reply: 9100

Query: For O=c1cc(CN2Cc3ccc(-c4ccccc4)cc3C2)nc2c(O)cccn12 [Compound 45] then?
Reply: 700

Query: For O=c1cc(CNCc2ccc(Cl)cc2)nc2c(O)cccn12 [Compound 19] then?
Reply: 1100

Query: For O=c1cc(CN2Cc3ccc(Cl)cc3C2)nc2c(O)cccn12 [Compound 43] then?
Reply: 500

Query: For O=c1cc(CN2Cc3ccccc3C2)nc2c(O)cccn12 [Compound 42] then?
Reply: 1200

Query: For O=c1cc(COCc2ccccc2Cl)nc2c(O)cccn12 [Compound 34] then?
Reply: 9000

Query: For COc1ccc(CNCc2cc(=O)n3cccc(O)c3n2)cc1 [Compound 21] then?
Reply: 1900

---

# STUDY_TARGET: BoNT/A LC (Clostridium botulinum)
# ASSAY_EXPLANATION: biochemical
# Format: biochemical
MEASURED_ENDPOINT: Ki (nM)
Answer format: numeric, nM implied, no suffix.

Query: For the compound O=c1cc(CNCc2ccc(-c3ccccc3)cc2)nc2c(O)cccn12 [Compound 27] , what Ki is on record?
Reply: 150

---

# STUDY_TARGET: BoNT/A LC (Clostridium botulinum, UniProt P0DPI0)
# Sequence (P0DPI0 2-448 limits assumed): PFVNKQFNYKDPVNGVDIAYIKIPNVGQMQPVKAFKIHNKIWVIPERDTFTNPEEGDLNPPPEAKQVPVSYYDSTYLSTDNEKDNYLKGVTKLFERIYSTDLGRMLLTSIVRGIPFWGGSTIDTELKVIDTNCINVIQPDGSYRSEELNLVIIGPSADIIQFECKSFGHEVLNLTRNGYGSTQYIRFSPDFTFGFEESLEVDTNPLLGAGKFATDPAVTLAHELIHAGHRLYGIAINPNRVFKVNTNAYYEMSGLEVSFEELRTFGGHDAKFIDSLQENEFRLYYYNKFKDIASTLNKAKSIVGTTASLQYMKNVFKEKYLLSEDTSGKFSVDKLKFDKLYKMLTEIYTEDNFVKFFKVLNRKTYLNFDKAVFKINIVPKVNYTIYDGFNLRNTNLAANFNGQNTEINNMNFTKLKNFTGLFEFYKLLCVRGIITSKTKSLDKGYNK
# ASSAY_EXPLANATION: biochemical
MEASURED_ENDPOINT: IC50 (nM)
Answer format: numeric, nM implied, no suffix.

Query: For the compound O=c1cc(CN2Cc3ccc(Br)cc3C2)nc2c(O)cccn12 [Compound 44] , what IC50 is on record?
Reply: 400

Query: For O=c1cc(CN2CCc3ccc(Br)cc32)nc2c(O)cccn12 [Compound 49] then?
Reply: 700

Query: For COC(=O)c1ccc2c(c1)CCN2Cc1cc(=O)n2cccc(O)c2n1 [Compound 52] then?
Reply: 1200

Query: For O=c1cc(COCc2ccccc2)nc2c(O)cccn12 [Compound 30] then?
Reply: 2500

Query: For COc1cccc(CNCc2cc(=O)n3cccc(O)c3n2)c1 [Compound 20] then?
Reply: 490

Query: For Cc1ccc(CNCc2cc(=O)n3cccc(O)c3n2)cc1 [Compound 23] then?
Reply: 1400

---

# STUDY_TARGET: BoNT/A LC (Clostridium botulinum, UniProt P0DPI0)
# ASSAY_EXPLANATION: biochemical
# Assay type: biochemical
Threshold 5000 nM: IC50 strictly smaller gives yes (1), otherwise no (0).

MOLECULE	CAT
O=c1cc(CN2CCc3cc(Cl)ccc32)nc2c(O)cccn12 [Compound 47]	yes (1)
O=c1cc(CNCc2cccc(-c3ccccc3)c2)nc2c(O)cccn12 [Compound 26]	yes (1)
O=c1cc(CN2CCc3ccccc32)nc2c(O)cccn12 [Compound 46]	yes (1)

Next item in the queue.
Query: Please state whether IC50 is below 5000 nM for O=C(O)c1ccc2c(c1)N(Cc1cc(=O)n3cccc(O)c3n1)CC2 [Compound 54]
Reply: yes (1)

---

# STUDY_TARGET: BoNT/A LC (Clostridium botulinum, UniProt P0DPI0)
# ASSAY_EXPLANATION: biochemical
Listing: IC50 of selected compounds

SMILES_CODE	RESULT
COc1ccc2c(c1)N(Cc1cc(=O)n3cccc(O)c3n1)CC2	> 64 µM
O=c1cc(CNCCc2ccccc2)nc2c(O)cccn12	10 µM
O=c1cc(COCc2ccccc2F)nc2c(O)cccn12	18 µM
O=c1cc(COCc2cccc(Cl)c2)nc2c(O)cccn12	7.5 µM
O=c1cc(COCc2cccc(O)c2)nc2c(O)cccn12	26 µM

Query: For the compound `Cc1cccc(CNCc2cc(=O)n3cccc(O)c3n2)c1` , what IC50 is on record?
Reply: 0.5 µM

Query: For `O=c1cc(CNCc2ccccc2)nc2c(O)cccn12` then?
Reply: 0.9 µM

Query: For `O=c1cc(CN2CCc3cc(Br)ccc32)nc2c(O)cccn12` then?
Reply: 0.7 µM

Query: For `O=c1cc(CN2CCc3cc(-c4ccccc4)ccc32)nc2c(O)cccn12` then?
Reply: 0.9 µM

Query: For `O=C(O)[C@@H]1CN(Cc2cc(=O)n3cccc(O)c3n2)C[C@H]1c1ccccn1` then?
Reply: 1.3 µM

Query: For `Cc1cccc2c1N(Cc1cc(=O)n3cccc(O)c3n1)CC2` then?
Reply: 24 µM

---

# STUDY_TARGET: BoNT/A LC (Clostridium botulinum, UniProt P0DPI0)
# ASSAY_EXPLANATION: biochemical
Listing: IC50 of selected compounds
Answer format: numeric, µM implied, no suffix.

Look over these answered cases.
COMPOUND	STUDY_TARGET	IC50, µM
COc1cc(COCc2cc(=O)n3cccc(O)c3n2)cc(OC)c1 [Compound 41]	BoNT/A LC (Clostridium botulinum, UniProt P0DPI0)	5.2
O=c1cc(CNCc2ccc(F)cc2)nc2c(O)cccn12 [Compound 17]	BoNT/A LC (Clostridium botulinum, UniProt P0DPI0)	1.2
CC(O)c1cc2n(n1)CCN(Cc1cc(=O)n3cccc(O)c3n1)C2 (stereo not drawn) [Compound 4]	BoNT/A LC (Clostridium botulinum, UniProt P0DPI0)	7
O=c1cc(COCc2ccc(Cl)cc2)nc2c(O)cccn12 [Compound 36]	BoNT/A LC (Clostridium botulinum, UniProt P0DPI0)	4.13
Cc1cccc(COCc2cc(=O)n3cccc(O)c3n2)c1 [Compound 38]	BoNT/A LC (Clostridium botulinum, UniProt P0DPI0)	6.6

Query: For the compound CN(Cc1ccc(-c2ccccc2)cc1)Cc1cc(=O)n2cccc(O)c2n1 [Compound 28] , what IC50 is on record?
Reply: 12

Query: For O=c1cc(CN2CCc3ccc(-c4ccccc4)cc32)nc2c(O)cccn12 [Compound 56] then?
Reply: 0.6

Query: For O=c1cc(CNCc2ccc(-c3ccccc3)cc2)nc2c(O)cccn12 [Compound 27] then?
Reply: 0.3

Query: For O=c1cc(COCc2cccc([N+](=O)[O-])c2)nc2c(O)cccn12 [Compound 40] then?
Reply: 9.7

Query: For O=c1cc(CNCc2cccc(F)c2)nc2c(O)cccn12 [Compound 16] then?
Reply: 0.6

Query: For O=c1cc(COCc2cccc(F)c2)nc2c(O)cccn12 [Compound 32] then?
Reply: 11

Query: For O=c1cc(COCc2ccc(F)cc2)nc2c(O)cccn12 [Compound 33] then?
Reply: 15

Query: For O=c1cc(CNCc2cccc(Cl)c2)nc2c(O)cccn12 [Compound 18] then?
Reply: 1.7

Query: For COC(=O)c1ccc2c(c1)N(Cc1cc(=O)n3cccc(O)c3n1)CC2 [Compound 53] then?
Reply: 1.1

The reported numbers originate from paper PMC10001950.
